Reference for the values: patent US10398751B2

# ASSAY TEXT: Solubility screening of veldoreotide acetate (10 mg, incremental volumes of medium, USP definition)
# Format: physicochemical
# COND: double distilled water, 10 ml Slightly soluble (0.001 g/ml; 1 mg/ml), 10 mg in DDW (Double distilled water)
PARAMETER MEASURED: solubility

[[record]]
compound = "C[C@@H](O)[C@@H]1NC(=O)[C@H](CCCCN)NC(=O)[C@@H](Cc2c[nH]c3ccccc23)NC(=O)[C@H](Cc2c[nH]c3ccccc23)NC(=O)[C@H](Cc2ccccc2)NC(=O)CCCNC(=O)CCCN(CC(N)=O)C(=O)[C@H](Cc2ccccc2)NC1=O [Veldoreotide Acetate]"
assay_value = "> 1000 µg/mL"


---

# ASSAY TEXT: Solubility screening of veldoreotide acetate (10 mg, incremental volumes of medium, USP definition)
# Format: physicochemical
# COND: Ethanol (USP), 10 mg in Ethanol (USP); read-out: 0.5 ml Soluble (0.02 g/ml; 20 mg/ml)
PARAMETER MEASURED: solubility

[[record]]
compound = "C[C@@H](O)[C@@H]1NC(=O)[C@H](CCCCN)NC(=O)[C@@H](Cc2c[nH]c3ccccc23)NC(=O)[C@H](Cc2c[nH]c3ccccc23)NC(=O)[C@H](Cc2ccccc2)NC(=O)CCCNC(=O)CCCN(CC(N)=O)C(=O)[C@H](Cc2ccccc2)NC1=O [Veldoreotide Acetate]"
assay_value = "> 20 mg/mL"


---

# ASSAY TEXT: Solubility and surface activity in PBS under physiological conditions (37° C.)
# Format: physicochemical
# COND: PBS, pH 7.4, PBS pH 7.4, 37° C., COR005 10 mg/ml, HPB:PEP 10:1
PARAMETER MEASURED: solubility (µg/mL)

[[record]]
compound = "C[C@@H](O)[C@@H]1NC(=O)[C@H](CCCCN)NC(=O)[C@@H](Cc2c[nH]c3ccccc23)NC(=O)[C@H](Cc2c[nH]c3ccccc23)NC(=O)[C@H](Cc2ccccc2)NC(=O)CCCNC(=O)CCCN(CC(N)=O)C(=O)[C@H](Cc2ccccc2)NC1=O [Veldoreotide]"
assay_value = 8900


---

# ASSAY TEXT: Solubility of COR005 acetate in aqueous media with additives at 25° C.
# Format: physicochemical
# COND: isotonic PBS pH 7.4, pH 7.4, PBS pH 7.4 Isotonic; HPB:PEP 1:1; read-out: Solubility of COR005 Acetate (mg/ml) at 25° C.
PARAMETER MEASURED: solubility

[[record]]
compound = "C[C@@H](O)[C@@H]1NC(=O)[C@H](CCCCN)NC(=O)[C@@H](Cc2c[nH]c3ccccc23)NC(=O)[C@H](Cc2c[nH]c3ccccc23)NC(=O)[C@H](Cc2ccccc2)NC(=O)CCCNC(=O)CCCN(CC(N)=O)C(=O)[C@H](Cc2ccccc2)NC1=O [Veldoreotide Acetate]"
parameter_measured = "solubility"
assay_value = "4.5 mg/mL"


---

# ASSAY TEXT: Circulatory half-life after subcutaneous administration to rats
# COND: rat, in vivo, sc
PARAMETER MEASURED: half-life

[[record]]
molecule = "C[C@@H](O)[C@@H]1NC(=O)[C@H](CCCCN)NC(=O)[C@@H](Cc2c[nH]c3ccccc23)NC(=O)[C@H](Cc2c[nH]c3ccccc23)NC(=O)[C@H](Cc2ccccc2)NC(=O)CCCNC(=O)CCCN(CC(N)=O)C(=O)[C@H](Cc2ccccc2)NC1=O [Veldoreotide Acetate]"
parameter_measured = "half-life"
assay_value = "~3 h"

